selective drug sensitivity score by entry:
System: NALL-1
test-protocol: selective drug sensitivity score (sDSS, relative to normal bone marrow) (sDSS (score)); higher = more potent and effective on the cell line relative to normal bone marrow cells;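 note: ALL cell lines in 384-well plates, five doses spanning 10,000-fold, each plate scaled between vehicle and 100 µmol/L benzalkonium chloride controls, sDSS an adapted area-under-curve metric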
condition-description: 72 h

| compound | selective drug sensitivity score |
| --- | --- |
| Cc1ccc(C(=O)Nc2cccc(C(F)(F)F)c2)cc1Nc1nc(-c2cccnc2)nc2c1cnn2C [NVP-BHG712] (top concentration 10000 nM) | 2.98 |
| C[C@]12CC[C@@H]3c4ccc(O)cc4C[C@@H](CCCCCCCCC[S+]([O-])CCCC(F)(F)C(F)(F)F)[C@H]3[C@@H]1CC[C@@H]2O (some centres not stated) [Fulvestrant] (top concentration 1000 nM) | 1.6 |
| COc1ccccc1S(=O)(=O)Nc1ccc2c(c1)CN(C)C(=O)N2 [PFI-1] (top concentration 30000 nM) | -4.1 |
| O=C(O)CNC(=O)c1c(O)c2ccccc2n(Cc2ccccc2)c1=O [IOX-2] (top concentration 50000 nM) | -0.82 |
| Oc1ncnc2[nH]ncc12 [Allopurinol] (top concentration 10000 nM) | -0.64 |
| COc1cc(Nc2ncc(F)c(Nc3ccc4c(n3)N(COP(=O)(O)O)C(=O)C(C)(C)O4)n2)cc(OC)c1OC [Fostamatinib] (top concentration 2500 nM) | -2.64 |
| CCc1cc2c(cc1N1CCC(N3CCOCC3)CC1)C(C)(C)c1[nH]c3cc(C#N)ccc3c1C2=O [Alectinib] (top concentration 1000 nM) | -0.22 |

###

Tested on: REH
test-protocol: selective drug sensitivity score (sDSS, relative to normal bone marrow) (sDSS (score)); higher = more potent and effective on the cell line relative to normal bone marrow cells
condition-description: 72 h
Assign y whenever selective drug sensitivity score does not fall below 0.1; assign n whenever it does.

| molecule | category |
| --- | --- |
| O=C(NC1CCNCC1)c1n[nH]cc1NC(=O)c1c(Cl)cccc1Cl [AT7519] (top concentration 10000 nM) | n |
| CN[C@@H](C)C(=O)N[C@H]1CN(C(=O)CC(C)C)CC[C@H]2CC[C@@H](C(=O)NC(c3ccccc3)c3ccccc3)N2C1=O [AT-406] (top concentration 10000 nM) | y |
| Nc1nc(Cl)nc2c1ncn2[C@@H]1O[C@H](CO)[C@@H](O)[C@@H]1F [Clofarabine] (top concentration 10000 nM) | y |
| COC[C@H](NC(=O)c1cnc(C)s1)C(=O)N[C@@H](COC)C(=O)N[C@@H](Cc1ccccc1)C(=O)[C@@]1(C)CO1 [Oprozomib] (top concentration 2500 nM) | n |
| CNC(=O)CN1CCC(Oc2cc3c(Nc4cccc(Cl)c4F)ncnc3cc2OC)CC1 [Sapitinib] (top concentration 1000 nM) | n |

###

Test system: COG-LL-317
test-protocol: selective drug sensitivity score (sDSS, relative to normal bone marrow) (sDSS (score)); higher = more potent and effective on the cell line relative to normal bone marrow cells
condition-description: 72 h
Outcome: condition met for selective drug sensitivity score of at least 6; condition not met for anything lower.

| molecule | category |
| --- | --- |
| NC(=S)N/N=C/c1ncccc1N [Triapine] (top concentration 10000 nM) | condition not met |
| COc1cccc(OCCCN)c1-c1cc(Nc2cnc(C#N)cn2)n[nH]1 [Prexasertib] (top concentration 10000 nM) | condition met |
| Cc1sc2c(c1C)C(c1ccc(Cl)cc1)=N[C@@H](CC(=O)Nc1ccc(O)cc1)c1nnc(C)n1-2 [Birabresib] (top concentration 10000 nM) | condition met |
| Cc1ccc(C(=O)Nc2ccc(Oc3cc4cnn(C)c4cc3-c3cn[nH]c3)c(F)c2)c(=O)n1-c1ccc(F)cc1 [Merestinib] (top concentration 1000 nM) | condition not met |
| N#Cc1ccc(COC[C@H]2O[C@@H](n3c(NCc4ccc(Cl)c(Cl)c4)nc4c(N)ncnc43)[C@H](O)[C@@H]2O)cc1 (top concentration 10000 nM) | condition met |
| COC[C@H](NC(=O)c1cnc(C)s1)C(=O)N[C@@H](COC)C(=O)N[C@@H](Cc1ccccc1)C(=O)[C@@]1(C)CO1 [Oprozomib] (top concentration 2500 nM) | condition met |
| CC1(C)CNc2cc(NC(=O)c3cccnc3NCc3ccncc3)ccc21 [Motesanib] (top concentration 10000 nM) | condition not met |
| COc1cc(Nc2ncc(F)c(Nc3ccc4c(n3)N(COP(=O)(O)O)C(=O)C(C)(C)O4)n2)cc(OC)c1OC [Fostamatinib] (top concentration 2500 nM) | condition not met |
| COc1cc(Br)c(Nc2nc(-c3c(C)nc4ncccn34)cs2)c(Br)c1 [PTC-209] (top concentration 10000 nM) | condition not met |
| COc1cc2c(Oc3ccc(NC(=O)C4(C(=O)Nc5ccc(F)cc5)CC4)cc3F)ccnc2cc1OCCCN1CCOCC1 [Foretinib] (top concentration 1000 nM) | condition not met |
| COc1ccc(Cn2ccc3ccc(C(=O)NO)cc32)cc1 (top concentration 10000 nM) | condition met |
| O=C(Nc1cccc(Nc2ncc(Br)c(NCCc3cnc[nH]3)n2)c1)N1CCCC1 [BX-912] (top concentration 10000 nM) | condition met |

###

Tested on: MOLT-4
test-protocol: selective drug sensitivity score (sDSS, relative to normal bone marrow) (sDSS (score)); higher = more potent and effective on the cell line relative to normal bone marrow cells
condition-description: 72 h
As shown below, each of these compounds has a reported selective drug sensitivity score value.

| compound | subject-of-test | selective drug sensitivity score |
| --- | --- | --- |
| Nc1ncnc2c1c(COc1cccc(Cl)c1)nn2C1CCOCC1 (top concentration 10000 nM) | MOLT-4 | 0.16 |
| Cc1cc(C)c(CNC(=O)c2cc(-c3ccc(CN4CCOCC4)cc3)cc3c2cnn3C2CCCC2)c(=O)[nH]1 [EPZ-5687] (top concentration 10000 nM) | MOLT-4 | -0.36 |
| CC[C@]12C=CCN3CC[C@@]4(c5cc([C@@]6(C(=O)OC)C[C@@H]7C[C@@H](C(C)(F)F)CN(Cc8c6[nH]c6ccccc86)C7)c(OC)cc5N(C)[C@H]4[C@@](O)(C(=O)OC)[C@@H]1OC(C)=O)[C@@H]32 [Vinflunine] (top concentration 1000 nM) | MOLT-4 | 3.48 |
| COc1cc(Br)c(Nc2nc(-c3c(C)nc4ncccn34)cs2)c(Br)c1 [PTC-209] (top concentration 10000 nM) | MOLT-4 | -0.48 |
| O=C(Nc1cccnc1)N1CCC(Cc2cccc(Oc3ccc(C(F)(F)F)cn3)c2)CC1 [PF-3845] (top concentration 10000 nM) | MOLT-4 | 2.36 |
| CC[C@@H](C(=O)[C@@H](C)[C@@H](O)[C@H](C)[C@@H]1O[C@@H]([C@@H](CC)C(=O)O)CC[C@@H]1C)[C@H]1O[C@]2(C=C[C@@H](O)[C@]3(CC[C@@](C)([C@H]4CC[C@](O)(CC)[C@H](C)O4)O3)O2)[C@H](C)C[C@@H]1C [Salinomycin] (top concentration 50000 nM) | MOLT-4 | -5.3 |

###

Test system: RCH-ACV
test-protocol: selective drug sensitivity score (sDSS, relative to normal bone marrow) (sDSS (score)); higher = more potent and effective on the cell line relative to normal bone marrow cells
condition-description: 72 h

| compound | selective drug sensitivity score |
| --- | --- |
| CO[C@H]1C[C@@H]2CC[C@@H](C)[C@@](O)(O2)C(=O)C(=O)N2CCCC[C@H]2C(=O)O[C@H]([C@H](C)C[C@@H]2CC[C@@H](OC(=O)C(C)(CO)CO)[C@H](OC)C2)CC(=O)[C@H](C)/C=C(\C)[C@@H](O)[C@@H](OC)C(=O)[C@H](C)C[C@H](C)/C=C/C=C/C=C/1C [Temsirolimus] (top concentration 100 nM) | 20.8 |
| CNC(=O)c1cccc2cc(Oc3ccnc4cc(OCC5(N)CC5)c(OC)cc34)ccc12 [Lucitanib] (top concentration 10000 nM) | 6.38 |

###

Each item that follows carries a reported selective drug sensitivity score.
Test system: SUP-B15
test-protocol: selective drug sensitivity score (sDSS, relative to normal bone marrow) (sDSS (score)); higher = more potent and effective on the cell line relative to normal bone marrow cells
condition-description: 72 h
measurement-name: selective drug sensitivity score

| molecule | measurement-name | measurement |
| --- | --- | --- |
| CCn1c(C(=O)N(C2CC2)C2CC2)cc2c3c(ncn3C)c(Nc3cc(C)n(C)n3)nc21 (top concentration 10000 nM) | selective drug sensitivity score | -4.36 |
| CNC(=O)c1nn(C)c2c1C(C)(C)Cc1cnc(Nc3ccc(N4CCN(C)CC4)cc3)nc1-2 [Milciclib] (top concentration 10000 nM) | selective drug sensitivity score | 8.14 |
| Nc1nc(Cl)nc2c1ncn2[C@@H]1O[C@H](CO)[C@@H](O)[C@@H]1F [Clofarabine] (top concentration 10000 nM) | selective drug sensitivity score | 10.5 |
| CNC(=O)c1cccc2cc(Oc3ccnc4cc(OCC5(N)CC5)c(OC)cc34)ccc12 [Lucitanib] (top concentration 10000 nM) | selective drug sensitivity score | 3.48 |
| CC1CCC(n2c3cnccc3c3cnc(Nc4ccc5c(n4)CCN(C(=O)CO)C5)nc32)CC1 (stereo not drawn) [AMG-925] (top concentration 1000 nM) | selective drug sensitivity score | 11.7 |
| COc1cc(Nc2ncc(F)c(Nc3ccc4c(n3)N(COP(=O)(O)O)C(=O)C(C)(C)O4)n2)cc(OC)c1OC [Fostamatinib] (top concentration 2500 nM) | selective drug sensitivity score | 0.96 |
| CC1(C)NC(=O)N(c2ccc([N+](=O)[O-])c(C(F)(F)F)c2)C1=O [Nilutamide] (top concentration 10000 nM) | selective drug sensitivity score | -0.48 |
| CC(C)(C)c1cnc(CSc2cnc(NC(=O)C3CCNCC3)s2)o1 [SNS-032] (top concentration 10000 nM) | selective drug sensitivity score | -3.14 |
| CCOCc1nc2c(N)nc3ccccc3c2n1CC(C)(C)O [Resiquimod] (top concentration 10000 nM) | selective drug sensitivity score | -1.22 |
| Oc1ccc2c(c1)CC[C@H](c1ccccc1)[C@@H]2c1ccc(OCCN2CCCC2)cc1 [Lasofoxifene] (top concentration 1000 nM) | selective drug sensitivity score | -1.28 |
| Cc1c(Cn2c(C)nc3c(C(=O)O)cc(N4CCOCC4)cc32)cccc1C(F)(F)F (top concentration 10000 nM) | selective drug sensitivity score | 0.38 |
| CCN(CC)Cc1ccc2cc(COC(=O)Nc3ccc(C(=O)NO)cc3)ccc2c1 [Givinostat] (top concentration 1000 nM) | selective drug sensitivity score | 8.1 |
| C=CC(=O)N1CCC(Oc2cc3c(Nc4ccc(Cl)c(Cl)c4F)ncnc3cc2OC)CC1 [Poziotinib] (top concentration 1000 nM) | selective drug sensitivity score | 2.98 |
